Entry source: patent US7078209B2

pKi: −log10 of the molar value.
Below are pKi values recorded for CDK activating kinase (CAK) from Candida albicans (Candida albicans, UniProt A0A1D8PH53).

[
  {
    "item_smiles": "N#Cc1c(N)c(C(=O)c2ccc(F)cc2)n2ccccc12",
    "comparative_sign": "=",
    "pKi": 6.06
  },
  {
    "item_smiles": "N#Cc1c(N)c(C(=O)c2ccc(Cl)c(Cl)c2)n2ccccc12",
    "comparative_sign": "=",
    "pKi": 6.19
  },
  {
    "item_smiles": "N#Cc1c(N)c(C(=O)c2ccc3ccccc3c2)n2ccccc12",
    "comparative_sign": "=",
    "pKi": 6.27
  },
  {
    "item_smiles": "COc1cccc(C(=O)c2c(N)c(C#N)c3ccccn23)c1",
    "comparative_sign": "=",
    "pKi": 6.68
  },
  {
    "item_smiles": "N#Cc1c(N)c(C(=O)c2ccc(Br)cc2)n2ccccc12",
    "comparative_sign": "=",
    "pKi": 5.72
  },
  {
    "item_smiles": "N#Cc1c(N)c(C(=O)c2ccc(F)c(F)c2)n2ccccc12",
    "comparative_sign": "=",
    "pKi": 6.00
  },
  {
    "item_smiles": "CC(=O)Nc1c(C#N)c2ccccn2c1C(=O)c1ccc(F)cc1",
    "comparative_sign": "<",
    "pKi": 4.52
  },
  {
    "item_smiles": "N#Cc1c(N)c(C(=O)c2ccc(OC(F)(F)F)cc2)n2ccccc12",
    "comparative_sign": "=",
    "pKi": 5.82
  }
]
